Data credit: patent US20100216715A1

- testedTarget: T1, human beta-Klotho (human, UniProt Q86Z14 1-1044)
- T1 sequence (looked up): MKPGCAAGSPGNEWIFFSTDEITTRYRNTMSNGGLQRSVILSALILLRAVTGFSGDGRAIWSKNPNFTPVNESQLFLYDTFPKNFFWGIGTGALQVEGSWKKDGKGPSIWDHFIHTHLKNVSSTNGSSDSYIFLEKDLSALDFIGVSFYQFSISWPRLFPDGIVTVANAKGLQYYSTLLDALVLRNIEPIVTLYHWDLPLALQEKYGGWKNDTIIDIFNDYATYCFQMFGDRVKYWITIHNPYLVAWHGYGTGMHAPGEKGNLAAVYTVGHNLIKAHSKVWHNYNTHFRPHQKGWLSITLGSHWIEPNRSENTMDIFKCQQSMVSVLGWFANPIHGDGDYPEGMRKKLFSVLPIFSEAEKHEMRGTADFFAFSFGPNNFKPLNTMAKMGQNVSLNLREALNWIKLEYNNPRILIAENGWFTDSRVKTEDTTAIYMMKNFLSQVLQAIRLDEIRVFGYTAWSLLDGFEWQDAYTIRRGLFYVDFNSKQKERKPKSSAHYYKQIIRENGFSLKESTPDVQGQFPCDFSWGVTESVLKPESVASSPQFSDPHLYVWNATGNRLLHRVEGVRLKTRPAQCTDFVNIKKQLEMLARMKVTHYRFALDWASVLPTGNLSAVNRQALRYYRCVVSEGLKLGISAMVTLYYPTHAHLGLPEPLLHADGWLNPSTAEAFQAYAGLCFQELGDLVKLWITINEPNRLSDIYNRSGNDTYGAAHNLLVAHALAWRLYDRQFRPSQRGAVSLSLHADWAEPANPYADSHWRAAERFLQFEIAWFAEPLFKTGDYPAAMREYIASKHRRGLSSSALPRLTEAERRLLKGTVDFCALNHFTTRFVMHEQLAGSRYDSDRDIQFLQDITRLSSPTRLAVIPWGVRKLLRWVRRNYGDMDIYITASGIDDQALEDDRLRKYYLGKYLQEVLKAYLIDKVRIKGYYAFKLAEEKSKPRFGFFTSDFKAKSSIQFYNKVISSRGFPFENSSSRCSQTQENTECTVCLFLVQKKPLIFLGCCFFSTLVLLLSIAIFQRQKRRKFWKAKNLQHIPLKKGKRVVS
- experimentalProtocol: cell-based or functional assay
endpoint: pERK-HEK293-Beta-klotho without HSA [EC50 (nM)] Median Value
Kindly provide the numeric value in nM only, without the unit symbol.

{"columns": ["binder", "quantitativeResult"],
 "data": [
  ["(K56R, K59R, K69R, K122R) Gly-FGF21 derivative of Example 54 (ligand, N-alpha1-[4-(16-1H-tetrazol-5-yl-hexadecanoylsulfamoyl)-butyryl] on the N-terminal alpha amino group) GHPIPDSSPLLQFGGQVRQRYLYTDDAQQTEAHLEIREDGTVGGAADQSPESLLQLRALRPGVIQILGVRTSRFLCQRPDGALYGSLHFDPEACSFRELLLEDGYNVYQSEAHGLPLHLPGNRSPHRDPAPRGPARFLPLPGLPPALPEPPGILAPQPPDVGSSDPLSMVGPSQGRSPSYAS", 4.2]
]}

Turning now to a further record.
Please list pERK-HEK293-Beta-klotho without HSA [EC50 (nM)] Median Value recorded for the binder (-1S, 71C, 166F, 167G, 168L, 169aT, 171L, 172E, 173A, 174V, 179F, 180E, 181K) FGF21 derivative of Example 18 (ligand, S-71-({2-[2-(2-{2-[2-(2-{2-[(S)-4-carboxy-4-(17-carboxy-heptadecanoylamino)-butyrylamino]-ethoxy}-ethoxy)-acetylamino]-ethoxy}-ethoxy)-acetyl-amino]-ethylcarbamoyl}-methyl) on the thiol of Cys71) SHPIPDSSPLLQFGGQVRQRYLYTDDAQQTEAHLEIREDGTVGGAADQSPESLLQLKALKPGVIQILGVKTCRFLCQRPDGALYGSLHFDPEACSFRELLLEDGYNVYQSEAHGLPLHLPGNKSPHRDPAPRGPARFLPLPGLPPALPEPPGILAPQPPDVGSSDPFGLVTGLEAVRSPSFEK
2.5
